target.or.system: T1, human CD123 (full-length, on cells) (human, UniProt P26951 19-378)
T1 construct: also called CD123-FL; interleukin-3 receptor alpha chain
T1 sequence (P26951 19-378): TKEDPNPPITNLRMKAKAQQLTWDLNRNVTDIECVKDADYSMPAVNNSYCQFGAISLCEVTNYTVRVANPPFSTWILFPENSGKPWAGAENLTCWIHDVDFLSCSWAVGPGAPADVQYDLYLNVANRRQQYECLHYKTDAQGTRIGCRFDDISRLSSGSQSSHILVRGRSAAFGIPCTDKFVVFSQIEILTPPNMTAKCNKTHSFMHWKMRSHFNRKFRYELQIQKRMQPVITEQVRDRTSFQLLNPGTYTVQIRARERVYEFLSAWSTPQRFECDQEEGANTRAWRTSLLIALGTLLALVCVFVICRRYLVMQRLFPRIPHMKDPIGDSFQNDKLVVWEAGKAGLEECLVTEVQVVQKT
assay.remarks: flow cytometry on HEK 293 cells transfected with full-length CD123; apparent Kd, one-site fit
reported.endpoint: Kd

Task: What value of Kd has been reported for the following binder? hzF3v26-IgG1 (Fc fusion) EVQLVESGGGLVQPGGSLRLSCRASGRAINAYNMGWFRQAPGKGREFVSAINWNAARTYYAESVKGRFTISRDNAKNTLYLQMSSLRAEDTAVYYCAASGRWSAAVPSGEDQYNFWGQGTLVTVDKTHTCPPCPAPGGPSVFLFPPKPKDTLMISRTPEVTCVVVDVSHEDPEVKFNWYVDGVEVHNAKTKPREEQYNSTYRVVSVLTVLHQDWLNGKEYKCKVSNKALPAPIEKTISKAKGQPREPQVYTLPPSRDELTKNQVSLTCLVKGFYPSDIAVEWESNGQPENNYKTTPPVLDSDGSFFLYSKLTVDKSRWQQGNVFSCSVMHEALHNHYTQKSLSLSPGK
Result: 0.93 nM

Reference for the values: patent US20230065306A1
